Target: Replicase polyprotein 1ab (Severe acute respiratory syndrome coronavirus 2, UniProt P0DTD1)
Experiment: SARS-CoV-2 in Vero E6
MEASUREMENT_TYPE: pIC50
# pIC50 = -log10(concentration in molar units)

So what does the record say about pIC50 for O=c1nc(NO)ccn1[C@@H]1O[C@H](CO)[C@@H](O)[C@H]1O ?
6.52
